test system: PC-3; assay: NCI tumour cell line growth inhibition, 48 h
The source made the active and inactive calls. Rule as the data show it: active = GI50 up to about 1.1 µM and inactive = higher.
Readout: GI50

Molecule | Readout | Value Observed
CCP(=O)(CC)C(Cl)Cl | GI50 | > 100 µM (inactive)
CNC(=O)N(CCC#N)CCN(CCN(C(=O)NC)c1ccccc1)C(=O)NC | GI50 | > 100 µM (inactive)
COc1ccc2c(c1)CN1C(=N2)CSC1c1c(Cl)cccc1[N+](=O)[O-] (stereo unspecified) | GI50 | 23.8 µM (inactive)
Nc1ccc(-c2nc3ccccc3s2)cc1F | GI50 | 21.4 µM (inactive)
CCCCCN1C(=O)C(Cc2ccccc2)N=C(c2ccc(O)cc2)c2cc(Cl)ccc21 (stereo unspecified) | GI50 | 6.21 µM (inactive)
COc1ccccc1C1=C2C(=O)N(C)C(c3ccccc3OC)=C2C(=O)N1C | GI50 | > 100 µM (inactive)
O=C1c2ccccc2/C=C\C(c2ccccc2)=N/N1c1ccccc1Cl | GI50 | 6.73 µM (inactive)
COc1cccc(/N=N/N2CCCC2)c1 | GI50 | 27.2 µM (inactive)

q: Provide one value: measured GI50 of CC(=O)[C@H]1[C@H](O)C[C@@]2(C)[C@@H]3CCc4cc(O)c(OC5OC(CO)C(O)C(O)C5O)cc4C3(C)C(=O)C[C@]12C (stereo partly specified)
a: > 100 µM (inactive)

q: Provide one value: measured GI50 of COc1cc2c(c(OC)c1OC)C(=O)[C@@H]1[C@H]2N1C(=O)NCCCl
a: 58.2 µM (inactive)

q: Provide one value: measured GI50 of COc1cc(NC(C)c2ccc3c(c2)OCCO3)cc(OC)c1OC (stereo unspecified)
a: 44.9 µM (inactive)

Cited source for all entries: ChEMBL document CHEMBL1201862
